Attribution: the Human Domainome abundance scans (Beltran et al. 2025)

B1: Zinc finger homeobox protein 3, residues 2244 to 2299; numbered along this chain, Q15911 (parent)
chain: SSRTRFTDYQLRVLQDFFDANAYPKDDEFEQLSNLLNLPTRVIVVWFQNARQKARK

# Variants of: B1
# run.description: abundance fitness (aPCA) (normalised: wild type 0, dead -1); higher = more abundant; growth selection in yeast, the domain comes from the species named
# conditions.used: Homo sapiens
reported.property: abundance fitness
Just the number.

{"columns": ["sequence.text", "measured.number"],
 "data": [
  ["SNRTRFTDYQLRVLQDFFDANAYPKDDEFEQLSNLLNLPTRVIVVWFQNARQKARK [S2N]", 0.007],
  ["SSRTRFTDYQLRVLQDFFDANAYPKDDEFEQLSNLLQLPTRVIVVWFQNARQKARK [N37Q]", -0.12],
  ["SSRTRFTDYQLRVLQDFFDANAYPKYDEFEQLSNLLNLPTRVIVVWFQNARQKARK [D26Y]", -0.105],
  ["SSRTRFTDYQLRVLQDFFDADAYPKDDEFEQLSNLLNLPTRVIVVWFQNARQKARK [N21D]", -0.306]
]}

Then this variant:
Lab note: SSRTNFTDYQLRVLQDFFDANAYPKDDEFEQLSNLLNLPTRVIVVWFQNARQKARK [R5N] gave abundance fitness of 0.305
